Assay: chemical genetic growth profiling, strain panel (AID 1159580);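 note: tested at 20 µM; growth read once vehicle control cultures reached saturation at 30 °C; 1 = growth at the plate median or of vehicle wells; lower values mean less growth of the strain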
Details: S. cerevisiae deletion strains, growth OD, locus YHR142W, strain chs7
The whole screen tested about 5,500 compounds, of which about 2,000 (36%) were called active. Inconclusive results (about 18%) are left out. Cut-off read from the data, not from the text of the source: active = normalized growth mostly below about 0.91 (no sharp cut-off); inconclusive = no clear call, values can overlap the other calls; inactive = mostly above about 0.92. The list shows a part of the results.
Returns: one label drawn from t (active), f (inactive)

Hi team, can someone confirm the assay call for C=C(C)[C@@H]1CC[C@]2(CO)CC[C@]3(C)[C@H](CCC4[C@@]5(C)CC[C@H](O)C(C)(C)C5CC[C@]43C)C12 (stereo partly specified) ?
f

###

I'd appreciate it if you could supply normalized growth values for the items below.
Test: chemical genetic growth profiling, strain panel (AID 1159580);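 note: tested at 20 µM; growth read once vehicle control cultures reached saturation at 30 °C; 1 = growth at the plate median or of vehicle wells; lower values mean less growth of the strain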
Conditions: S. cerevisiae deletion strains, growth OD, locus YDR335W, strain msn5, hits give low values
Screen size: about 5,500 compounds; about 2,000 (36%) were called active. About 18% were inconclusive and are not listed. This is one part of the list. Where a SMILES comes first, the peptide text is derived from it. Side-chain parts run from the residue outwards. [ ]: non-standard residue; d: D form. The star is where a group is joined. X1 = CCC(C)C(N)C1=NC(C(=O)*)CS1; Orn = NCCC[CH](N)C(=O)O
Numbers only.

1) CNS(=O)(=O)Cc1ccc2[nH]cc(CCN(C)C)c2c1 : 1.02
2) COc1cc(-c2coc3cc(O[C@@H]4O[C@H](CO)[C@@H](O)[C@H](O)[C@H]4O)c(OC)c(O)c3c2=O)cc(O)c1OC : 1
3) CCC1(CC)C(=O)C=CNC1=O : 0.997
4) CNC(Cc1c[nH]c2ccccc12)C(=O)O (stereo unspecified) : 0.987
5) CCN(CC)CCNC(=O)c1cc(Cl)c(N)cc1OC : 0.976
6) COc1ccc(C2C(=O)c3ccccc3C2=O)cc1 : 1.02
7) CC(=O)[C@@]1(O)CCC2C3CCC4=CC(=O)CC[C@]4(C)C3CC[C@@]21C (stereo partly specified) : 1.01
8) CCNc1nc(Cl)nc(NCC)n1 : 0.989

Here are 8 compounds. What values of normalized growth were reported for them?
1. O=C1c2ccccc2C(=O)C1c1ccccc1
2. CN(C)CCc1c[nH]c2ccc(CS(=O)(=O)N3CCCC3)cc12
3. COC1(C)CCC2OC2(C)CCC2C1CC2(C)C (stereo unspecified)
4. NCCNCCNCCN
5. CCC(C)C(N)C1=NC(C(=O)NC(CC(C)C)C(=O)NC(CCC(=O)O)C(=O)NC(C(=O)NCCCCC2NC(=O)C(CC(N)=O)NC(=O)C(CC(=O)O)NC(=O)C(Cc3cnc[nH]3)NC(=O)C(Cc3ccccc3)NC(=O)C(C(C)CC)NC(=O)C(CCCN)NC2=O)C(C)CC)CS1 (stereo not drawn) (cyclo(DNK([Ile-Glu-Leu-X1])[Orn]IFH); configuration not given here)
6. CN(C)CCc1c[nH]c2ccc(C[C@H]3COC(=O)N3)cc12
7. CC(=O)N[C@@H](Cc1c[nH]c2ccccc12)C(=O)O
8. Cc1c(NC(=O)c2cccnc2)c(=O)n(-c2ccccc2)n1C

1: 0.995; 2: 0.982; 3: 1.02; 4: 0.998; 5: 1.01; 6: 1.01; 7: 0.987; 8: 0.997

###

Provide the reported normalized growth of each item.
Test: chemical genetic growth profiling, strain panel (AID 1159580);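 note: tested at 20 µM; growth read once vehicle control cultures reached saturation at 30 °C; 1 = growth at the plate median or of vehicle wells; lower values mean less growth of the strain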
Conditions: S. cerevisiae deletion strains, growth OD, locus YER002W, strain NOP16, hits give low values
The campaign covered roughly 5,500 compounds. About 2,000 (36%) were called active. Another 18% or so got no clear call; they are omitted. The list shows a part of the results.
Numbers only.

1) Cn1cc(C(F)(F)F)nc1-c1ccc(OCC(O)CNCCOc2ccc(O)c(C(N)=O)c2)cc1 (stereo not given) : 1.04
2) Cc1cc(C(C)(C)C)cc(C)c1CC1=NCCN1 : 1
3) C=C(C)C1Cc2c(ccc3c2OC2COc4cc(OC)c(OC)cc4C2C3=O)O1 (stereo not given) : 0.992
4) c1cc(CN2CCCCC2)cc(OCCCNc2nc3ccccc3s2)c1 : 0.936
5) CC(C)NCC(O)c1ccc(NS(C)(=O)=O)cc1 (stereo not given) : 1
6) Nc1ncnc2c1ncn2[C@@H]1O[C@H](C(=O)NC2CC2)[C@H](O)C1O (stereo not given in full) : 1
7) CC(=O)NBr : 1.01
8) CCN(CC)C(=O)N[C@@H]1C=C2c3cccc4[nH]cc(c34)C[C@H]2N(C)C1 : 1
9) Cc1ccc(N(CC2=NCCN2)c2cccc(O)c2)cc1 : 1.01
10) CCc1c(C(=O)OC)ncc2[nH]c3cc(OC)c(OC)cc3c12 : 0.99

Dear colleague, could you please provide normalized growth for the compounds listed below?
1. CC(C)[C@@H]1NC(=O)[C@H](CCCCN)NC(=O)[C@@H](Cc2c[nH]c3ccccc23)NC(=O)[C@H](Cc2ccc(O)cc2)NC(=O)[C@H](C)N(C)C(=O)[C@H](Cc2ccccc2)NC1=O
2. CCCCCN(CCCCC)C(=O)C(CCC(=O)O)NC(=O)c1ccc(Cl)c(Cl)c1 (stereo not given)

1. 1.01
2. 0.991

Fill in normalized growth for each of the 3 compounds listed.
1. NC(C(=O)O)c1cc(=O)[nH]o1 (stereo not given)
2. CNC(=O)[C@H]1O[C@@H](n2cnc3c(NCc4ccc(N)cc4)ncnc32)C(O)[C@H]1O (stereo not given in full)
3. COc1cccc(C(=O)NCCN2CCN(c3ccc(Cl)cc3)CC2)c1

[1.01, 1.02, 1.02]
